- Tested on: HepG2
- assay.details: cytotoxicity call (relative viability < 0.9)
- experimental.setup: 10 µM
The whole screen tested about 39,000 compounds, of which about 3,300 (8.5%) were called active. Shown is part of a subset that was picked to be rich in actives.
Labels: active, inactive

molecule | group.label
C[C@H]1CCCCO[C@H](CN(C)C(=O)C2CCCCC2)[C@@H](C)CN([C@@H](C)CO)C(=O)c2cc(NC(=O)Nc3ccc(C(F)(F)F)cc3)ccc2O1 | inactive
NCCCN1CCCN(CCCN)CC1 | inactive
C[C@@H]1CCCCO[C@H](CN(C)C(=O)C2CCCCC2)[C@H](C)CN([C@@H](C)CO)C(=O)c2cc(NC(=O)Nc3ccc(C(F)(F)F)cc3)ccc2O1 | inactive
C[C@H](CO)N1C[C@H](C)[C@@H](CN(C)C(=O)C2CCCCC2)OCCCC[C@H](C)Oc2ccc(NC(=O)Nc3ccc(C(F)(F)F)cc3)cc2C1=O | inactive
CS(=O)(=O)N1CCS(=O)(=O)[C@H]2CCN(CC3CC3)CC[C@@H]21 | inactive
CC=C(C)C(=O)O[C@H]1[C@H](OC(C)=O)[C@]2(CO)[C@H](O)C[C@]3(C)C(=CC[C@@H]4[C@@]5(C)CC[C@H](O[C@@H]6O[C@H](C(=O)O)[C@@H](O[C@@H]7O[C@H](CO)[C@@H](O)[C@H](O)[C@H]7O)[C@H](O)[C@H]6O[C@@H]6O[C@H](CO)[C@@H](O)[C@H](O)[C@H]6O)[C@](C)(CO)[C@@H]5CC[C@]43C)[C@@H]2CC1(C)C | active
Cc1noc(C)c1NC(=O)Nc1ccc2c(c1)CC(=O)N([C@@H](C)CO)C[C@@H](C)[C@@H](CN(C)CC1CC1)O2 | inactive
COc1ccc(C[C@H](N)C(=O)N[C@H]2[C@@H](O)[C@H](n3cnc4c(N(C)C)ncnc43)O[C@@H]2CO)cc1 | active
CC(C)CCCC(C)C1CCC2C3CCC4CC(O)CCC4(C)C3CCC12C (centres undefined) | inactive
Nc1ncnc2c1ncn2[C@@H]1O[C@H](CSCC[C@H](N)C(=O)O)[C@@H](O)[C@H]1O | inactive
O=C(CCCCCNC(=O)OCc1ccc(CO[C@@H]2C[C@H](C3CCCCC3)C=C(C(=O)N3CCN(Cc4ccccc4)CC3)O2)cc1)NO | inactive
C[C@@H]1CCCCO[C@H](CN(C)C(=O)C2CCCCC2)[C@@H](C)CN([C@H](C)CO)C(=O)c2cc(NC(=O)Nc3ccc(C(F)(F)F)cc3)ccc2O1 | inactive
C[C@@H]1CN([C@@H](C)CO)C(=O)c2ccccc2-c2ccccc2CO[C@@H]1CN(C)C(=O)c1cc(Cl)cc(Cl)c1 | inactive
C[C@@H]1CCCCO[C@@H](CN(C)C(=O)C2CCCCC2)[C@@H](C)CN([C@H](C)CO)C(=O)c2cc(NC(=O)Nc3ccc(C(F)(F)F)cc3)ccc2O1 | inactive
C[C@@H]1CN([C@H](C)CO)C(=O)c2cc(NC(=O)Cc3cn(C)c4ccccc34)ccc2O[C@H]1CN(C)C(=O)Nc1cccc2ccccc12 | inactive
CC(C)NC(=O)Nc1ccc2c(c1)C(=O)N([C@@H](C)CO)C[C@H](C)[C@@H](CN(C)C(=O)Nc1ccccc1)OCCCC[C@@H](C)O2 | inactive
C[C@H]1O[C@@H](O[C@H]2CC[C@@]3(C)[C@@H](CC[C@@]4(C)[C@@H]3CC=C3[C@H]5C[C@](C)(C(=O)O)CC[C@]5(C(=O)O[C@H]5O[C@@H](CO)[C@@H](O)[C@@H](O)[C@@H]5O)CC[C@@]34C)[C@@]2(C)CO)[C@@H](O)[C@@H](O[C@H]2O[C@@H](CO)[C@@H](O)[C@@H](O)[C@@H]2O)[C@@H]1O | inactive
CC(C)CCC[C@@H](C)[C@H]1CC[C@H]2[C@@H]3C[C@@H](O)[C@@]4(O)C[C@@H](O)CC[C@]4(C)[C@H]3CC[C@]12C | active
C[C@@H]1CCCCO[C@@H](CN(C)C(=O)C2CCCCC2)[C@H](C)CN([C@@H](C)CO)C(=O)c2cc(NC(=O)Nc3ccc(C(F)(F)F)cc3)ccc2O1 | active
C[C@@H]1CN([C@H](C)CO)C(=O)c2cc(NC(=O)Nc3ccc(C(F)(F)F)cc3)ccc2O[C@@H](C)CCCCO[C@@H]1CN(C)C(=O)C1CCCCC1 | active
CN1C(=O)[C@@H](O)N(c2ccccc2)C1=O | inactive
C[C@@H]1CC[C@]2(C(=O)O[C@@H]3O[C@H](CO)[C@@H](O)[C@H](O)[C@H]3O)CC[C@]3(C)C(=CC[C@H]4[C@@]5(C)C[C@@H](O)[C@H](O)[C@@](C)(CO)[C@@H]5CC[C@]43C)[C@@H]2[C@]1(C)O | inactive
C[S+](CC[C@H](N)C(=O)O)C[C@H]1O[C@@H](n2cnc3c(N)ncnc32)[C@H](O)[C@@H]1O (some centres undefined) | inactive
C[C@@H]1CCCCO[C@H](CN(C)S(=O)(=O)c2ccc(Cl)cc2)[C@@H](C)CN([C@@H](C)CO)C(=O)c2cc(NC(=O)c3ccncc3)ccc2O1 | active
